Biological target: human PDE4B1 (Homo sapiens, UniProt Q07343)
Construct: host or cells: Sf9 cells
Sequence (Q07343 whole entry): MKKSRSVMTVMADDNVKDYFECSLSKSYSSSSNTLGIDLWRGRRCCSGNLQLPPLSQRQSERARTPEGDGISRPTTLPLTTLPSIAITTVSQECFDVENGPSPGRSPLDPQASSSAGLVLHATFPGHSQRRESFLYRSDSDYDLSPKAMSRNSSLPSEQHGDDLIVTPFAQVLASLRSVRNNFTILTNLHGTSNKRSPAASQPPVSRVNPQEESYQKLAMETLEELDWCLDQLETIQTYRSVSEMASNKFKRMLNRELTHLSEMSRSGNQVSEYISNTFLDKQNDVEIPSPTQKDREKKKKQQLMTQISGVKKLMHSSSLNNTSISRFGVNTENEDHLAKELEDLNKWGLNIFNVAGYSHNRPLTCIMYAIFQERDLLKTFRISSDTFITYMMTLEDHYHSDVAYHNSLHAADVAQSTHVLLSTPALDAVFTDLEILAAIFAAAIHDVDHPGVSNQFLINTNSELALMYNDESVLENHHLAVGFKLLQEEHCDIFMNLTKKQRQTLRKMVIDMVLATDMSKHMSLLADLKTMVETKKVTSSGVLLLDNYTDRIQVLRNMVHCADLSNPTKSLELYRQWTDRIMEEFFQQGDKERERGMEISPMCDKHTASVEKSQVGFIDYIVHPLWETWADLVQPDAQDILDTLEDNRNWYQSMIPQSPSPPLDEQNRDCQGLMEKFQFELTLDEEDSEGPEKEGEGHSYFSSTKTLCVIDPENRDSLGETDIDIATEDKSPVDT
Assay: TR-FRET assay using the LANCE Ultra cAMP kit to determine the activity of hPDE4B1
Assay type: biochemical
Conditions: test concentration 1 μM, read-out: Inhibition in % (inhibition of PDE4B)
Below, each entry is listed alongside its reported inhibition at 1 µM.
Don't forget the unit after the value.

Please review the following examples before continuing.
[[record]]
molecule = "Cc1ccnc(-c2cnc(-n3cc([S+](C)[O-])c4ccc(C(=O)N5C[C@@H]6C[C@H]5CN6)cc43)nc2)c1 (stereo partly drawn)"
result = "86%"

[[record]]
molecule = "C[S+]([O-])c1cn(-c2ncc(-c3nc(C#N)cs3)cn2)c2cc(C(=O)N3CCOCC3)ccc12 (stereo not drawn)"
result = "67%"

[[record]]
molecule = "CN(C)C(=O)c1ccc2c([S+](C)[O-])cn(-c3ncc(-c4ccccn4)cn3)c2c1 (stereo not drawn)"
result = "92%"

[[record]]
molecule = "COc1ccc(F)c(-c2cnc(-n3cc([S+](C)[O-])c4ccc(C(=O)N(C)C)cc43)nc2)c1 (stereo not drawn)"
result = "95%"

[[record]]
molecule = "C[S+]([O-])c1cn(-c2ncc(-c3ccccc3F)cn2)c2cc(C(=O)N3CCO[C@H](CO)C3)ccc12 (stereo partly drawn)"
result = "93%"


Which inhibition at 1 µM is reported for this molecule? Cc1ccc(F)c(-c2cnc(-n3cc([S+](C)[O-])c4ccc(C(=O)N(C)CC(N)=O)cc43)nc2)c1 (stereo not drawn)
97%

Hello, the source for this data is patent US9315490B2, in case you need it.
